Protocol: inhibitors of mutant huntingtin aggregation, primary screen, imaging, exon1htt(103Q)mCFP cells, high-content imaging (AID 483);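 note: compound exposure lasted 3 days before fixation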
Measurement Setup: exon1htt(103Q)mCFP cell line, aggregate imaging, at 2 µM; active compounds read high
Below: a set of entries, each annotated with reported inhibition of aggregation.
Lab book: enter the figure in %, no units written.

Measured inhibition of aggregation of CCOC(=O)c1oc2cccc(OC(C)=O)c2c1C : 11.2

Measured inhibition of aggregation of CCOC(=O)CC12CN3CN(C1)CC(CC(=O)OCC)(C3)C2=O : 7.3

Measured inhibition of aggregation of CCN1C(=O)c2ccccc2S(=O)c2ccc(C(=O)NC3CC3)cc21 (stereo unspecified) : 20.1

Measured inhibition of aggregation of CC(C)C(NC(=O)OCc1ccccc1)C(=O)OCC(=O)NCc1ccco1 (stereo unspecified) : -14.8

Measured inhibition of aggregation of Cc1cc(C)n2nc(S(=O)(=O)N(C)c3ccccc3)nc2n1 : 16.2

Measured inhibition of aggregation of Cc1ccccc1Nc1cc2ccccc2c(=O)[nH]1 : -19.5

Measured inhibition of aggregation of O=C(CCN1C(=O)C2C3C=CC(C3)C2C1=O)N1CCN(c2ccccc2Cl)CC1 (stereo unspecified) : -5

Measured inhibition of aggregation of Cn1c(C(=O)N2CCCC(C(=O)NCCCc3ccccc3)C2)cc2sccc21 (stereo unspecified) : 6.7

Measured inhibition of aggregation of COc1ccc(CC(=O)NCc2nnc(SCC(=O)Nc3nccs3)n2-c2ccccc2)cc1 : 17.6

Measured inhibition of aggregation of CC(=O)Nc1sc2c(c1CN1CCN(c3ccccn3)CC1)CCCC2 : 5.2

Measured inhibition of aggregation of O=S(=O)(Nc1nc2ccccc2nc1NCc1ccco1)c1ccc(Cl)cc1 : 4.8

---

System Tested: Voltage-gated potassium channel subunit beta-2 (Rattus norvegicus) (UniProt P62483)
Sequence (P62483 whole entry, looked up): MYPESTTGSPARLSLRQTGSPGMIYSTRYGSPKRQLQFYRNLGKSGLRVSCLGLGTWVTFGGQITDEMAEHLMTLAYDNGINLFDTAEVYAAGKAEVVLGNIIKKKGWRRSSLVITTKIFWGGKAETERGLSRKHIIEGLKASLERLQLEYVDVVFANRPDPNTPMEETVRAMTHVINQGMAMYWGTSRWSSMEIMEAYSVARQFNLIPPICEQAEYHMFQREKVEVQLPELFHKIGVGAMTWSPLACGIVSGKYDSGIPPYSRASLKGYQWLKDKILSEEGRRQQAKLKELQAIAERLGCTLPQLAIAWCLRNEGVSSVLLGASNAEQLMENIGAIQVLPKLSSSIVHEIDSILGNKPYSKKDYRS
Protocol: KvBeta enzyme negative modulators, primary screen, biochemical, NADPH fluorescence (AID 622);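 note: slope of raw intensity against log time taken from 70 to 1610 s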
Measurement Setup: recombinant KvBeta, 4-cyanobenzaldehyde reduction, at 10 µM, active compounds read high
Classify by measured fluorescence slope: criterion met if it is equal to or exceeds -0.5, criterion not met if it is smaller.

Qu. Is fluorescence slope at least -0.5? Consider N/C(=N/O)c1nc(N2CCCC2)nc(N(c2ccccc2)c2ccccc2)n1
Ans. criterion not met

Qu. Is fluorescence slope at least -0.5? Consider CCOc1cccc(/C(O)=C2/C(=O)C(=O)N(CCN3CCOCC3)C2c2cccnc2)c1 (stereo not given)
Ans. criterion met

---

Below: a set of entries, each annotated with reported NADPH fluorescence slope.
System Tested: Voltage-gated potassium channel subunit beta-2 (Rattus norvegicus)
Protocol: KvBeta positive modulators, primary screen, biochemical, NADPH fluorescence (AID 623);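 note: fluorescence intensity change per second fitted from 20 to 320 s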
Measurement Setup: Recombinant KvBeta, NADPH fluorescence decrease slope, 10 min; at 10 µM; active compounds read low
Answer as a number with no unit attached.

Please review the entries below; each comes with its answer.
{"Compound": "CCOC(=O)C1=C(CS(=O)(=O)c2ccc(F)c(C)c2)NC(=O)NC1c1ccc(O)c(O)c1 (centres undefined)", "System Tested": "Voltage-gated potassium channel subunit beta-2 (Rattus norvegicus)", "NADPH fluorescence slope": "-2.4e-05"}
{"Compound": "C/C=C/Cn1c(Br)nc2c1c(=O)[nH]c(=O)n2C", "System Tested": "Voltage-gated potassium channel subunit beta-2 (Rattus norvegicus)", "NADPH fluorescence slope": "-4.7e-05"}
{"Compound": "CCc1nc(NCCCN2CCOCC2)c2oc3ccccc3c2n1", "System Tested": "Voltage-gated potassium channel subunit beta-2 (Rattus norvegicus)", "NADPH fluorescence slope": "-3.3e-05"}

Known value: Voltage-gated potassium channel subunit beta-2 (Rattus norvegicus) NADPH fluorescence slope of the compound C=CCn1c(SCn2nnc3ccccc3c2=O)nnc1-c1ccc(Br)cc1 equals -5.6e-05

Known value: Voltage-gated potassium channel subunit beta-2 (Rattus norvegicus) NADPH fluorescence slope of the compound O=C(O)C1C2C=CC3(CN(C4CCCC4)C(=O)C13)O2 (centres undefined) equals -1.2e-05

Known value: Voltage-gated potassium channel subunit beta-2 (Rattus norvegicus) NADPH fluorescence slope of the compound Cn1c(=O)c2[nH]c(NCC3CCCO3)nc2n(-c2ccccc2)c1=O (centres undefined) equals -7.1e-05

Known value: Voltage-gated potassium channel subunit beta-2 (Rattus norvegicus) NADPH fluorescence slope of the compound CC(C)=CCC(C)(C)CNC(=O)NC1CCCCC1 equals -0.000111

Known value: Voltage-gated potassium channel subunit beta-2 (Rattus norvegicus) NADPH fluorescence slope of the compound Cc1nnc(SCC(=O)NCCN2C(=O)CSC2=O)s1 equals -1e-05

Known value: Voltage-gated potassium channel subunit beta-2 (Rattus norvegicus) NADPH fluorescence slope of the compound Cc1nc(N2CCN(C(=O)c3ccc(Cl)cc3)CC2)c(C#N)c2c1COC(C)(C)C2 equals -2.3e-05
